Recorded values, source ChEMBL document CHEMBL3988442.

# TESTED_ON: Aspartate--tRNA(Asp/Asn) ligase (Mycobacterium tuberculosis (strain ATCC 25618 / H37Rv)) (UniProt P9WFW3)
# Sequence (P9WFW3 whole entry): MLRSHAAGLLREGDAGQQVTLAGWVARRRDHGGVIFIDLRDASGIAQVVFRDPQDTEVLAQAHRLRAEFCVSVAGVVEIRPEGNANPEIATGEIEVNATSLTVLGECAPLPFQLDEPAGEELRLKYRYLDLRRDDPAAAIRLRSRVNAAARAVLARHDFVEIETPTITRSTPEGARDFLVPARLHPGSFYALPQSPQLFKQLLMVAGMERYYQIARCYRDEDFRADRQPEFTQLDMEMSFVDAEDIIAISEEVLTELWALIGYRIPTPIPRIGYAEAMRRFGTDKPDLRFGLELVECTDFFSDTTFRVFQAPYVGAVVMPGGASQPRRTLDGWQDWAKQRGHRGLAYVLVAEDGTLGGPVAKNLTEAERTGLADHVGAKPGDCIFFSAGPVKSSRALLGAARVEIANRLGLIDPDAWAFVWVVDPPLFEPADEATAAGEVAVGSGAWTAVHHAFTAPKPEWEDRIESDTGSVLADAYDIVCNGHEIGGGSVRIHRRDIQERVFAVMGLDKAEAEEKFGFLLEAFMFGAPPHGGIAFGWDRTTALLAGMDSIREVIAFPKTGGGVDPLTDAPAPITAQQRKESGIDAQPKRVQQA
# EXPERIMENT_SUMMARY: Assay for Asp RNA synthetase-1 from Mycobacterium tuberculosis
# Format: functional
# Design: scale not given: in the data most compounds retested in dose-response had high values
# CONDITION_SET: 30 µM
Each entry below lists one item and its recorded Percent Effect value.
ASSAY_READOUT: Percent Effect (%)

COMPOUND | RECORDED_NUMBER
COc1cccc(CCC(=O)N2CCCC(n3cc(C)cn3)C2)c1 (configuration not stated) | -3.33
Cc1cc(C)n(-c2cncc(NCCNC(=O)CC3CCCC3)n2)n1 | 0.268
COc1ccnc(N2CCN(C(=O)CCc3nccs3)CC2)n1 | -1.19
COC(=O)c1ccc2ccn(CC3CCCO3)c(=O)c2c1 (configuration not stated) | 7.1
CC1CN(C)c2ccccc2CN1C(=O)c1ccc[nH]1 (configuration not stated) | 4.95
CCn1ccnc1CN1CCCN(C(=O)c2sccc2C#N)CC1 | 1.71
CCn1cc(N2Cc3nc(N)ncc3C2=O)cn1 | -7.32
CSc1ccc(-c2nc(CN3CCC(NC(C)=O)C3)c(C)o2)cc1 (configuration not stated) | 2.73
CC(=O)N1CCN(CC2CCOc3ccccc3C2)CC1 (configuration not stated) | 1.75
CC(=O)N1CCC(C(=O)N(C)[C@@H]2CCC[C@@H](N3CCCC3)[C@@H]2O)CC1 | 1.35
Cn1nc2c(cc1=O)CN(CC(=O)Nc1ccc(Cl)cn1)CC2 | 48.3
CC(C)NC(=O)COc1nc(C(C)C)no1 | -2.64
